# reported polymerase ribozyme fitness (log ratio); entries follow
B1: TPR t1 (parent)
chain: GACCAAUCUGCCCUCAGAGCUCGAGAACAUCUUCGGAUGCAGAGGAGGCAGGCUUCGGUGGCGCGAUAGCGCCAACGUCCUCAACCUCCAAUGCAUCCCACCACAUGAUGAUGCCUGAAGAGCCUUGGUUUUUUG

variants of: B1; assay: polymerase ribozyme fitness, log enrichment relative to wild type (log ratio); higher = more active; in vitro selection for triplet polymerase activity
Returns: the value as a bare number; no unit string appended.

Consider the worked cases shown below.
A41U C80U; -1.77
G36U U87C C115U A119G U131C; 1.61
G58U G60U C80U U87A C89U; -3.57
U106A C124A G128A; 0.53
C22U C40G G69U C79U C82G; -3.66
G51U C62G C124G; -5.32

[ask] Consider the variant U54G G63U C88U C89A A103U G122U C124A . State its measured polymerase ribozyme fitness (log ratio).
[reply] -7.39

[ask] Please list polymerase ribozyme fitness (log ratio) recorded for the variant A26G G60U C97U
[reply] -2.92

[ask] Provide polymerase ribozyme fitness (log ratio) value for the following variant: C40A A50U C88U U96C G120U
[reply] -4.53

[ask] Identify measured polymerase ribozyme fitness (log ratio) corresponding to A24G A46U C72G G93C G120U C124U
[reply] -5.77
